FYI, the data here is from PubChem BioAssay (NCI).

Test system: EKVX NSCLC
measurement description: NCI tumour cell line growth inhibition, 48 h
readout name: TGI

compound="Cc1[nH]c(=O)[nH]c(=O)c1/C=C/C(=O)NC(CO)CS(=O)Cc1ccccc1 (stereo not drawn)" readout_name=TGI value_measured="> 300 µM"
compound=NC(N)=NC(N)=Nc1cnccn1 readout_name=TGI value_measured="> 100 µM"
compound=OC[P+](CO)(CO)C12CC3CC(CC(C3)C1)C2 readout_name=TGI value_measured="> 100 µM"
compound=N=N/C(=C\c1c(O)[nH]c2ccccc12)c1ccccc1 readout_name=TGI value_measured="> 92 µM"
compound=Cc1nn2c(nc1=O)sc1ccc3ccccc3c12 readout_name=TGI value_measured="> 100 µM"
compound="O=C(c1ccccc1)C(c1ccccc1)C1(O)C(=O)Nc2ccc([N+](=O)[O-])cc21 (stereo not drawn)" readout_name=TGI value_measured="> 100 µM"
compound="Cc1ccc([N+](=O)[O-])cc1S(=O)(=O)Nc1ccc(C2=NOC(c3cccs3)C2)cc1 (stereo not drawn)" readout_name=TGI value_measured="65 µM"
compound=COc1cc(O)c2c(c1)O[C@@H]1OCC[C@H]21 readout_name=TGI value_measured="> 100 µM"
compound=CCCCCCCCCCCC(=O)N1CCN(C(C)=O)CC1 readout_name=TGI value_measured="> 100 µM"
compound=O=C(O)c1nc2ccc(C(F)(F)F)cc2nc1NCc1ccc(Cl)c(Cl)c1 readout_name=TGI value_measured="30.4 µM"
compound="N#CC1=C(c2ccccc2)C(=C2Nc3ccccc3N2)C2S/C(=C\\c3ccccc3)C(=O)N2C1=N (stereo not drawn)" readout_name=TGI value_measured="5.2 µM"
compound=COc1cc(C(=O)N2CCN(c3ccccc3)CC2)c2ccccc2n1 readout_name=TGI value_measured="> 100 µM"
compound="O=C([O][Hg][CH2]C1OCCOC1[CH2][Hg][O]C(=O)c1ccccc1)c1ccccc1 (stereo not drawn)" readout_name=TGI value_measured="35.5 µM"
compound=COc1ccc2c(c1)[nH]c(=O)c1c3ccccc3cn21 readout_name=TGI value_measured="19.1 µM"
compound=COc1ccc2c(c1)CC[C@@H]1[C@@H]2CC[C@]2(C)c3c(cc(C(=O)O)c4sccc34)C[C@@H]12 readout_name=TGI value_measured="40.5 µM"
compound=OCCCNc1ccnc2cc(Cl)ccc12 readout_name=TGI value_measured="> 100 µM"
compound=Nc1nc(N)c(-c2ccccc2)c(C(=O)Nc2ccccc2)n1 readout_name=TGI value_measured="> 100 µM"
compound=Cn1c(=O)c2c(nc3sc4c(n32)C(=O)c2c(O)ccc(O)c2C4=O)n(C)c1=O readout_name=TGI value_measured="33.8 µM"
